Cited source for all entries: PubChem BioAssay AID1918944

Catalogue of viability, T/C values
Test system: 786-0 complex spheroid viability
Test: Anticancer human tumor 786-0 cell line growth inhibition;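 also: spheroids exposed to agents for seven days before readout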
Details: second compound 0.316 µM; first compound 10 µM; stronger effect = lower value
Text: Multicellular complex tumor spheroid response to LSD1 Inhibitor Iadademstat in combination with a variety of drugs and investigational agents in selected tumor cell lines The current study was undertaken to assess response to LSD1 inhibitors in combination with standard-of-care drugs and investigational agents in solid tumor complex spheroid models as well as in the K-562 leukemia. […] Compounds. […] If the clinical Cmax for an agent had not been determined, the highest concentration tested was 10 microM. […]

Compound	Target or test system	viability, T/C [%]
CC(C)c1c(-c2ccccc2)nc2c(C#N)c[nH]n2c1=O + NC1CC1c1ccc(-c2cccc(O)c2)cc1	786-0 complex spheroid viability	115
CC(C)c1c(-c2ccccc2)nc2c(C#N)c[nH]n2c1=O + NC1CCC(NC2CC2c2ccccc2)CC1	786-0 complex spheroid viability	116
CC1COCCN1c1cc(C2(S(C)(=N)=O)CC2)nc(-c2ccnc3[nH]ccc23)n1 (stereo not given) + NC1CC1c1ccc(-c2cccc(O)c2)cc1	786-0 complex spheroid viability	14.8
COc1ccc([C@@H](O)c2cc(-c3ncnc4cc(N5CCOCC5)ccc34)c(F)cc2Cl)nn1 + NC1CC1c1ccc(-c2cccc(O)c2)cc1	786-0 complex spheroid viability	40
CC1COCCN1c1cc(C2(S(C)(=N)=O)CC2)nc(-c2ccnc3[nH]ccc23)n1 (stereo not given) + NC1CCC(NC2CC2c2ccccc2)CC1	786-0 complex spheroid viability	6.62
CC1(C)CCC(CN2CCN(c3ccc(C(=O)NS(=O)(=O)c4ccc(NCC5CCOCC5)c([N+](=O)[O-])c4)c(Oc4cnc5[nH]ccc5c4)c3)CC2)=C(c2ccc(Cl)cc2)C1 + NC1CCC(NC2CC2c2ccccc2)CC1	786-0 complex spheroid viability	67.1
O=C(c1cc(Cc2n[nH]c(=O)c3ccccc23)ccc1F)N1CCN(C(=O)C2CC2)CC1 + NC1CCC(NC2CC2c2ccccc2)CC1	786-0 complex spheroid viability	72.6
O=C(c1cc(Cc2n[nH]c(=O)c3ccccc23)ccc1F)N1CCN(C(=O)C2CC2)CC1 + NC1CC1c1ccc(-c2cccc(O)c2)cc1	786-0 complex spheroid viability	81.1
COc1ccc([C@@H](O)c2cc(-c3ncnc4cc(N5CCOCC5)ccc34)c(F)cc2Cl)nn1 + NC1CCC(NC2CC2c2ccccc2)CC1	786-0 complex spheroid viability	47.8
CC1(C)CCC(CN2CCN(c3ccc(C(=O)NS(=O)(=O)c4ccc(NCC5CCOCC5)c([N+](=O)[O-])c4)c(Oc4cnc5[nH]ccc5c4)c3)CC2)=C(c2ccc(Cl)cc2)C1 + NC1CC1c1ccc(-c2cccc(O)c2)cc1	786-0 complex spheroid viability	68.6

----------
tested on: 786-0 complex spheroid viability; test: Anticancer human tumor 786-0 cell line growth inhibition; conditions: second compound 0.316 µM; first compound 0.00949 µM; active = viability on the fitted dose curve at most 10% of control; inactive = the rest;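 also: spheroids exposed to agents for seven days before readout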
Possible outcomes: yes (1) (active), no (0) (inactive)

Compound	Assigned class
CCN(c1cc(-c2ccc(CN3CCOCC3)cc2)cc(C(=O)NCc2c(C)cc(C)[nH]c2=O)c1C)C1CCOCC1 + NC1CC1c1ccc(-c2cccc(O)c2)cc1	no (0)
Nc1ccccc1NC(=O)c1ccc(CNC(=O)OCc2cccnc2)cc1 + NC1CC1c1ccc(-c2cccc(O)c2)cc1	no (0)
NS(=O)(=O)OCC1CC(n2ccc3c(NC4CCc5ccccc54)ncnc32)CC1O (configuration not stated) + NC1CCC(NC2CC2c2ccccc2)CC1	no (0)
Nc1ncn(C2CC(O)C(CO)S2)c(=O)n1 (configuration not stated) + NC1CC1c1ccc(-c2cccc(O)c2)cc1	no (0)
O=C(C=Cc1cccc(S(=O)(=O)Nc2ccccc2)c1)NO + NC1CC1c1ccc(-c2cccc(O)c2)cc1	no (0)
COc1cc(C2c3cc4c(cc3C(OC3OC5COC(C)OC5C(O)C3O)C3COC(=O)C23)OCO4)cc(OC)c1O (configuration not stated) + NC1CCC(NC2CC2c2ccccc2)CC1	no (0)
CCc1c2c(nc3ccc(O)cc13)-c1cc3c(c(=O)n1C2)COC(=O)[C@]3(O)CC + NC1CC1c1ccc(-c2cccc(O)c2)cc1	yes (1)
